System: HEK293
protocol: doxorubicin cell viability, CTG assay
Type: cell-based
condition: Homo sapiens, 96 h; HEK293, Other; CTG 4 days after treatment
result type: IC50 (nM)
Express your answer in nM, writing the number without its unit.

QUERY: State the recorded IC50 for this entry: `COc1cccc2c1C(=O)c1c(O)c3c(c(O)c1C2=O)C[C@@](O)(C(=O)CO)C[C@@H]3O[C@H]1C[C@H](N)[C@H](O)[C@H](C)O1`
RESULT: 29

###

Test system: PC3
protocol: doxorubicin cell viability, CTG assay
Type: cell-based
condition: Homo sapiens, PC-3, 96 h; PC3, Prostate; CTG 4 days after treatment
result type: IC50 (nM)
Express your answer in nM, writing the number without its unit.

QUERY: State the recorded IC50 for this entry: `COc1cccc2c1C(=O)c1c(O)c3c(c(O)c1C2=O)C[C@@](O)(C(=O)CO)C[C@@H]3O[C@H]1C[C@H](N)[C@H](O)[C@H](C)O1`
RESULT: 387
